Target: Egl nine homolog 1 (Homo sapiens)
Sequence (Q9GZT9 whole entry, the tested form may be a part): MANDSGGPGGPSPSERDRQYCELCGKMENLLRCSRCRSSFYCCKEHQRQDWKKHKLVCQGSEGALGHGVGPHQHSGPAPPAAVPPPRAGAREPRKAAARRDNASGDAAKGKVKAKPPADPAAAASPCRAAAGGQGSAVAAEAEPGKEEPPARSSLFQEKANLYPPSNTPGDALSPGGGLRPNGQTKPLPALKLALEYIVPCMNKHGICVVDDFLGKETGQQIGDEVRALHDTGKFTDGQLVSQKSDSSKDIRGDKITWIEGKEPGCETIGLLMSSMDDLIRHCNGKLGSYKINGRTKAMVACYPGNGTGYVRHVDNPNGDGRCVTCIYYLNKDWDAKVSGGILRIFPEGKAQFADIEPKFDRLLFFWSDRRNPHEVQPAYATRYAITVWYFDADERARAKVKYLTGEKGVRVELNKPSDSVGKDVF
Assay: Inhibition of recombinant human PHD2 (181 to 426 residues) using DLDLEMLAPYIPMDDDFQL peptide as substrate preincubated for 15 mins followed by substrate addition and measured after 15 mins by Q-TOF mass spectrometric analysis
# IC50 listing for each entry below

Here's what some known entries look like.
Cc1c(Br)c(C(=O)Nc2ccc(Cl)cc2C(F)(F)F)nn1C : > 100 µM
COCc1cc(O)nc(Nc2nc(C)c3ccc(C)cc3n2)n1 : > 100 µM
O=C1c2ccc3c4c(ccc(c24)C(=O)N1NC(=O)C(F)(F)F)CC3 : > 100 µM
O=C(Nc1ccccc1-c1nc2ccccc2c(=O)o1)C(F)(F)F : > 100 µM
O=C(O)c1cccc(NS(=O)(=O)c2cccc3cccnc23)c1 : > 100 µM
O=C(CCn1cnnn1)N1CCC(O)(c2cccc(C(F)(F)F)c2)CC1 : > 100 µM
Cn1nc(C(=O)Nc2ccccc2Cl)cc1C(=O)O : > 100 µM
COc1cccc(NC(=O)COc2ccccc2P(=O)(O)O)c1 : > 100 µM
Cc1nc(Sc2ncccc2C(=O)O)n[nH]1 : 4.09 µM
Cc1ccc(-n2nc3c(SCC(=O)O)nnc(C)c3c2C)cc1 : 26 µM

Next, consider the following compound.
*Q* Which IC50 is listed for "CC(C)c1nc2cc(NC(=O)CCn3cnnn3)ccc2n1C" ?
*A* > 100 µM
